target: A2 Adenosine receptor (Rattus norvegicus, UniProt P30543); construct: membrane preparations derived from the rat phaeochromocytoma cell line PC 12; endogenous in cells; host or cells: PC 12 (rat phaeochromocytoma; cell line available from the Beatson Institute, Glasgow); test: A2 Adenosine receptor affinity test ([3H]-NECA displacement, PC12 membranes); assay type: binding
Sequence (P30543 whole entry): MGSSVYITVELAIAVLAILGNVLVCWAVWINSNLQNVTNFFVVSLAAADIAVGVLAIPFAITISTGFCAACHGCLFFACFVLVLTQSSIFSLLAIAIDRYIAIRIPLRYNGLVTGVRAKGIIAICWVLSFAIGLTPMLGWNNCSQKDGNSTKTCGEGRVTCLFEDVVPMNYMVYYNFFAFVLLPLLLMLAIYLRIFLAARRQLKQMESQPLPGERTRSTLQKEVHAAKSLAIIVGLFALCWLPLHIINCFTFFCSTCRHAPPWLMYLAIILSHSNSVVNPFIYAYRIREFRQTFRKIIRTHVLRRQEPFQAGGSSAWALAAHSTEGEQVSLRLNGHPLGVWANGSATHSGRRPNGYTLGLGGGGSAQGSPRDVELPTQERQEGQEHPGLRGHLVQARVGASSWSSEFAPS
readout_type: IC50

Query: Under A2 Adenosine receptor (Rattus norvegicus, UniProt P30543): IC50 value of Nc1nc(Oc2ccccc2)nc2nc(-c3ccco3)nn12 [Example 1] ?
Reply: ~10 nM
